target: SMAD3 MH1 (Homo sapiens, UniProt P84022 1-132); test: EMSA; Hill 1.9; EMSA: 25 mM Tris-HCl (pH not given for binding buffer; RNA stock pH 7.5), 115 mM KCl, 1 mM MgCl2, 1 mM DTT, 20 ng/ul poly I:C, 0.1 mg/ml BSA, 10% glycerol, on ice 2 h; 0.5x TBE gel at 4 C; conditions: protein: recombinant; tags: 6xHis-SUMO cleaved; label: 5' 32P on one strand; blunt
Sequence (P84022 1-132): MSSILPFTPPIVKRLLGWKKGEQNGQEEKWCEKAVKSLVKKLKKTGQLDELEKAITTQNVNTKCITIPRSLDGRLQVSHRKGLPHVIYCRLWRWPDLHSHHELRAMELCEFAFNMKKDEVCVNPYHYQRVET
measured quantity: Kd

1) 19 dsDNA with 1 SBE (dsDNA) DNA 1: GTATGTCTCAGATGAA DNA 2: TTCATCTGAGACATAC :: 190 nM
